Source: ChEMBL document CHEMBL1201862

Give GI50 for every item shown.
system: EKVX; assay: NCI tumour cell line growth inhibition, 48 h
Activity calls are given as the source filed them. Rule as the data show it: active = GI50 up to about 1.1 µM and inactive = higher.

Query: What value of GI50 has been reported for the following compound? COc1ccc(-c2cc(-c3ccco3)c(C#N)c(=O)n2C2OC(OC(=O)c3ccccc3)C(OC(=O)c3ccccc3)C2OC(=O)c2ccccc2)cc1 (configuration not stated)
Reply: > 100 µM (inactive)

Query: And `O=C(/C=C/c1ccc(O)c(O)c1)O[C@H]1CCCC[C@@H]1OC(=O)/C=C/c1ccc(O)c(O)c1` ?
Reply: 20.6 µM (inactive)

Query: And CN(C)CC(=O)N1CCc2c([nH]c3ccccc23)C1c1cccnc1 (configuration not stated) ?
Reply: > 100 µM (inactive)

Query: And `O=C1CCCCC1=C(I)I` ?
Reply: 1.88 µM (inactive)

Query: And CC1CN=C(Nc2cccc(C(F)(F)F)c2)S1 (configuration not stated) ?
Reply: 34.1 µM (inactive)

Query: And `CCOP(=O)(OCC)[C@]12C[C@@H](C)C=C[C@H]1COC2=O` ?
Reply: > 100 µM (inactive)

Query: And `C[C@@H]1C[C@@H]2C(=O)N(c3ccccc3)C(=O)[C@@H]2c2[nH]c3ccc(Br)cc3c21` ?
Reply: 36.9 µM (inactive)

====

system: Malme-3M; assay: NCI tumour cell line growth inhibition, 48 h
Calls of active or inactive are those of the source. Cut-off read from the data, not from the text of the source: active = GI50 up to about 1.1 µM and inactive = higher.
Give GI50 for every item shown.

Query: What value of GI50 has been reported for the following molecule? COc1ccccc1C(C1=C(O)COC1=O)c1cc2c(cc1OC(C)=O)OCO2 (stereo not drawn)
Reply: > 100 µM (inactive)

Query: And CN(C)c1ccc(C2ON=C(c3ccccc3)N2C23CC4CC(CC(C4)C2)C3)cc1 (stereo not drawn) ?
Reply: > 10 µM (inactive)

Query: And COC(=O)C(=O)C(C(=O)C(=O)Nc1ccc([N+](=O)[O-])cc1C#N)c1nc2ccc([N+](=O)[O-])cc2nc1O (stereo not drawn) ?
Reply: > 100 µM (inactive)

====

tested on: OVCAR-4; test: NCI tumour cell line growth inhibition, 48 h
Calls of active or inactive are those of the source. Cut-off read from the data, not from the text of the source: active = GI50 up to about 1.1 µM and inactive = higher.
Give GI50 for every item shown.

Query: What GI50 appears in the records for this compound with OVCAR-4? `C[Si](C)(C)CC(N)=O`
Reply: > 100 µM (inactive)

Query: And NC(=O)/N=C1\NC(Cc2ccccc2)C(=O)N1Cc1ccccc1 (stereo not drawn) ?
Reply: > 100 µM (inactive)

Query: And `O=C1/C(=C/Cc2ccco2)N=C(c2ccccc2)N1c1nc2ccc(Sc3ccccc3)cc2[nH]1` ?
Reply: 24.2 µM (inactive)

Query: And `N#C/C(=C\c1ccc(F)cc1)c1nc2ccccc2c(=O)[nH]1` ?
Reply: > 100 µM (inactive)

Query: And `N#CC1(c2ccccc2)CCN(C2(c3ccccc3)CCCCC2)CC1` ?
Reply: > 100 µM (inactive)

Query: And `O=C1CCSc2c(cnc3ccccc23)N1` ?
Reply: 67.3 µM (inactive)

Query: And NC(=O)/C(=N\NC(=O)C[n+]1ccccc1)C1NC(=O)NC1=O (stereo not drawn) ?
Reply: > 100 µM (inactive)

Query: And `N#CC(C#N)=Cc1c[nH]c(=O)[nH]c1=O` ?
Reply: > 100 µM (inactive)

====

Give GI50 for every item shown.
system: KM12; test: NCI tumour cell line growth inhibition, 48 h
Activity calls are given as the source filed them. Rule as the data show it: active = GI50 up to about 1.1 µM and inactive = higher.

Query: What value of GI50 has been reported for the following compound? `O=Cc1cc2sc(C=O)cc2s1`
Reply: > 100 µM (inactive)

Query: And `Nc1ccc(C(=O)N/C(=C\c2cccc([N+](=O)[O-])c2)c2nc3c(O)nc(S)nc3[nH]2)cc1` ?
Reply: > 100 µM (inactive)

Query: And COc1ccc(N2C(=O)CSC2c2c[nH]c3ccccc23)cc1 (stereo unspecified) ?
Reply: 28.4 µM (inactive)

Query: And `CNc1ccc(N)cc1C(=O)N1CCC[C@H]1CO` ?
Reply: > 100 µM (inactive)

Query: And COc1cc2c(cc1OC)[C@H]1C(COC(=O)c3ccccc3)CS/C(=N/c3ccccc3)N1CC2 (stereo partly specified) ?
Reply: > 100 µM (inactive)

Query: And COC(=O)C12C3C4C5(C(=O)OC)C(C1C35C(=O)N(C(C)C)C(C)C)C42C(=O)N(C(C)C)C(C)C (stereo unspecified) ?
Reply: > 50 µM (inactive)

====

Give GI50 for every item shown.
test system: Hs-578T; assay: NCI tumour cell line growth inhibition, 48 h
Active and inactive are the calls of the source. Rule as the data show it: active = GI50 up to about 1.1 µM and inactive = higher.

Query: What GI50 appears in the records for this molecule with Hs-578T? CCOC(=O)C1=CN/C(=C(/C)C(=O)OC)SC1C(=O)OCC (stereo not drawn)
Reply: > 100 µM (inactive)

Query: And Cc1cn(C2CC(N)C(C(=O)O)O2)c(=O)[nH]c1=O (stereo not drawn) ?
Reply: > 100 µM (inactive)

Query: And `Cc1oc2c(cc(O)c3cc(O)ccc32)c2cccc1-2` ?
Reply: > 100 µM (inactive)

====

test system: ACHN; test: NCI tumour cell line growth inhibition, 48 h
The source made the active and inactive calls. Rule as the data show it: active = GI50 up to about 1.1 µM and inactive = higher.
The categories you may choose from are T for active, F for inactive

Query: Each compound tested received a call. Report the one for `CN(C)Cc1cc(/C=C/C(=O)c2ccc(Br)cc2)cc(CN(C)C)c1O` .
Reply: F

Query: And Cc1ccc(S(N)(=O)=O)cc1 [P-TOLUENESULFONAMIDE] ?
Reply: F

Query: And CCCCCCCCCCCCP(=O)(O)OCC(N)C(=O)O (stereo unspecified) ?
Reply: F

Query: And `O=[N+]([O-])c1ccc(N/N=C(\c2ccccc2)c2ccccn2)nc1` ?
Reply: T

Query: And Oc1ccc2c3c1OC1c4[nH]ncc4C[C@H]4[C@@H](C2)N(CC2CC2)CC[C@]314 (stereo partly specified) ?
Reply: F

Query: And O=C1C2C3C=CC(C2C(=O)N1COP(=O)(O)O)C1C2C(=O)N(COP(=O)(O)O)C(=O)C2C31 (stereo unspecified) ?
Reply: F

Query: And `O=C(Cc1ccccc1F)NC1=C(Cl)C(=O)c2ccccc2C1=O` ?
Reply: T

Query: And `CN(C)c1ccc(/C=c2/c3ccccc3n3nc4ccccc4c23)cc1` ?
Reply: F

Query: And `CC1=C(C(=O)CC(=O)C(=O)Nc2ccccc2C(F)(F)F)Sc2ccccc2N1` ?
Reply: F

Query: And `COc1cc([C@H]2CC(=O)C[C@H](c3cc(OC)c(OC)c(OC)c3)C23C(=O)c2ccccc2C3=O)cc(OC)c1OC` ?
Reply: F

Query: And `COc1nc(-c2cn(S(=O)(=O)c3ccc(C)cc3)c3ccc(Br)cc23)cc(C(F)(F)F)c1C#N` ?
Reply: F

====

Give GI50 for every item shown.
test system: EKVX; assay: NCI tumour cell line growth inhibition, 48 h
Activity calls are given as the source filed them. No stated cut-off is given here; in the data, active = GI50 up to about 1.1 µM and inactive = higher.

Query: What value of GI50 has been reported for the following molecule? `COc1cc(Nc2nc3cc(C(F)(F)F)ccc3nc2-c2ccccc2)cc(OC)c1OC`
Reply: 24.3 µM (inactive)

Query: And Cc1nn(C(=O)Cc2ccccc2)c2c1C(c1ccccc1)SC(=N)N2 (stereo unspecified) ?
Reply: > 100 µM (inactive)

Query: And C=C1C(=O)O[C@@H]2[C@H]1C[C@@H](O)[C@H](C)[C@@](O)(C(=O)/C=C/C)[C@H]2OC(=O)C(C)CC (stereo partly specified) ?
Reply: 8.57 µM (inactive)

Query: And `C[C@H](CCC(=O)NCCS(=O)(=O)O)[C@H]1CC[C@H]2[C@@H]3[C@H](O)C[C@@H]4C[C@H](O)CC[C@]4(C)[C@H]3CC[C@]12C` ?
Reply: > 100 µM (inactive)

Query: And O=C1c2ccccc2CC12Cc1ccc3c(c1C2=O)CCCC3 (stereo unspecified) ?
Reply: > 100 µM (inactive)

Query: And `O=c1[nH]nc(-c2ccccc2)n1/N=C\CC/C=N\n1c(-c2ccccc2)n[nH]c1=O` ?
Reply: 44.3 µM (inactive)

====

system: 786-0; assay: NCI tumour cell line growth inhibition, 48 h
Active and inactive are the calls of the source. No stated cut-off is given here; in the data, active = GI50 up to about 1.1 µM and inactive = higher.
ASSAY READOUT: GI50

Query: What value of GI50 has been reported for the following molecule? `CCOc1cc(NC(C)=O)ccc1C(=O)NNC(=O)c1ccccc1OC(C)=O`
Reply: 4.53 µM (inactive)

Query: And `COc1ccc2c(c1)C/C(=C\c1cccc3ccccc13)C2=O` ?
Reply: 15.4 µM (inactive)

Query: And CC(=O)ON(C(C)=O)C1C(COC(c2ccccc2)(c2ccccc2)c2ccccc2)OC2OC3(CCCC3)OC21 (centres undefined) ?
Reply: 30.9 µM (inactive)

Query: And `COc1cc(-c2cc(=O)c3cc(C)c(C)c(C(=O)O)c3o2)cc(OC)c1OC` ?
Reply: > 100 µM (inactive)

Query: And `COc1cccc(-c2ccc3c4c2O[C@H]2c5[nH]c6ccccc6c5C[C@@]5(O)[C@@H](C3)N(CC3CC3)CC[C@]425)c1` ?
Reply: 1.7 µM (inactive)

Query: And CCOC(=O)C(C(N)=O)C1=Nc2cc([N+](=O)[O-])ccc2N/C1=C\C(=O)c1ccccc1 (centres undefined) ?
Reply: 11.4 µM (inactive)

Query: And `CN(C)c1ccc(/C=C2\N=C(c3ccc(N)cc3)OC2=O)cc1` ?
Reply: > 100 µM (inactive)

Query: And `Cc1ccc2ccc(-c3ccccc3)c3c2c1C(=O)c1ccccc1C3=O` ?
Reply: 36.5 µM (inactive)

Query: And `CCOC(=O)C(C(=O)c1ccccc1-c1ccccc1C(=O)O)=P(c1ccccc1)(c1ccccc1)c1ccccc1` ?
Reply: 37.8 µM (inactive)

Query: And `Cn1ccnc1Oc1ccc(Cl)cc1` ?
Reply: 11.5 µM (inactive)

Query: And `COc1ccc2[nH]c3c(c2c1)COc1ccccc1C3=O` ?
Reply: > 100 µM (inactive)

Query: And CN1CCCOC(c2ccc(Cl)cc2)O1 (centres undefined) ?
Reply: > 100 µM (inactive)

Query: And `O=C1/C(=C/c2ccccc2)N=C(c2ccccc2)N1n1c(-c2ccccc2)nc2ccccc2c1=O` ?
Reply: > 100 µM (inactive)

Query: And `[N-]=[N+]=Nc1cc(=O)[nH]c2ccccc12` ?
Reply: > 100 µM (inactive)
